Target: T1, human NGF (human, UniProt P01138 122-241)
T1 construct: also called human Nerve Growth Factor; hN
T1 chain: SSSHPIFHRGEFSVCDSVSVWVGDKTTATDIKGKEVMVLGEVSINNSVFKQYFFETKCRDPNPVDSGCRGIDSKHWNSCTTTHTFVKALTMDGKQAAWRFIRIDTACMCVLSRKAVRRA
Experiment: SPR (Biacore), human NGF amine-coupled on chip, antibody injected
property label: koff

humanized mAb can48L2VH_HM855336.1 / can48L2VL_Z22192.1_P8A (antibody, V domains shown) VH: EVQLVESGGGLVQPGGSLRLSCAASGFTFSTYGMNWVRQAPGKGLEWVSYISSGGSSIYYADSVKGRFTISRDNAKNSLYLQMNSLRAEDTAVYYCAGSRYTYAYGGGYEFHFWGQGTLVTVSS VL: QSVVTQPASVSGAPGQRVTISCTGSTMDIDIFGVSWYQQLPGTAPKLLIYGDGDRPSGVPDRFSGSKSGASASLAITGLQAEDEADYHCQSGDSTLGALAIFGGGTHVTVL :: 0.000212 s⁻¹
humanized mAb can48L2VH_HM855323.1 / can48L2VL_Z22192.1_P8A (antibody, V domains shown) VH: EVQLVESGGGLVKPGGSLRLSCAASGFTFSTYGINWVRQAPGKGLEWVSYISSGGSSTYYADSVKGRFTISRDNAKNSLYLQMNSLRAEDTAVYYCAGSRYTYAYGGGYEFHFWGQGTLVTVSS VL: QSVVTQPASVSGAPGQRVTISCTGSTMDIDIFGVSWYQQLPGTAPKLLIYGDGDRPSGVPDRFSGSKSGASASLAITGLQAEDEADYHCQSGDSTLGALAIFGGGTHVTVL :: 0.000315 s⁻¹
humanized mAb can48L2VH_HM855336.1 / can48L2VL_Z22192.1 (antibody, V domains shown) VH: EVQLVESGGGLVQPGGSLRLSCAASGFTFSTYGMNWVRQAPGKGLEWVSYISSGGSSIYYADSVKGRFTISRDNAKNSLYLQMNSLRAEDTAVYYCAGSRYTYAYGGGYEFHFWGQGTLVTVSS VL: QSVVTQPPSVSGAPGQRVTISCTGSTMDIDIFGVSWYQQLPGTAPKLLIYGDGDRPSGVPDRFSGSKSGASASLAITGLQAEDEADYHCQSGDSTLGALAIFGGGTHVTVL :: 0.000337 s⁻¹
humanized mAb can48L2VH_HM855323.1 / can48L2VL_Z22192.1 (antibody, V domains shown) VH: EVQLVESGGGLVKPGGSLRLSCAASGFTFSTYGINWVRQAPGKGLEWVSYISSGGSSTYYADSVKGRFTISRDNAKNSLYLQMNSLRAEDTAVYYCAGSRYTYAYGGGYEFHFWGQGTLVTVSS VL: QSVVTQPPSVSGAPGQRVTISCTGSTMDIDIFGVSWYQQLPGTAPKLLIYGDGDRPSGVPDRFSGSKSGASASLAITGLQAEDEADYHCQSGDSTLGALAIFGGGTHVTVL :: 0.000256 s⁻¹

# input Fill in reported koff for this entry: humanized mAb can48L2VH_HM855323.1 / can48L2VL_Z22192.1_P14L (antibody, V domains shown) VH: EVQLVESGGGLVKPGGSLRLSCAASGFTFSTYGINWVRQAPGKGLEWVSYISSGGSSTYYADSVKGRFTISRDNAKNSLYLQMNSLRAEDTAVYYCAGSRYTYAYGGGYEFHFWGQGTLVTVSS VL: QSVVTQPPSVSGALGQRVTISCTGSTMDIDIFGVSWYQQLPGTAPKLLIYGDGDRPSGVPDRFSGSKSGASASLAITGLQAEDEADYHCQSGDSTLGALAIFGGGTHVTVL
# output 1.46e-07 s⁻¹

# input Let me know recorded koff for humanized mAb can9L12VH_X92218 / can9L12VL (antibody, V domains shown) VH: EVQLVESGGGLVQPGGSLRLSCAASGFTFSSHGMSWVRQAPGKGLEWVSVINSGGSSTYYADSVKGRFTISRDNSKNTLYLQMNSLRAEDTAVYYCAKESVGGWEQLVGPHFDYWGQGTLVIVSS VL: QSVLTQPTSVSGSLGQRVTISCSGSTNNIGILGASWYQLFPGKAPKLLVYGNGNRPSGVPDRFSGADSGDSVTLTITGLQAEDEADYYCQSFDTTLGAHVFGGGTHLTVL , thanks.
# output 3.78e-05 s⁻¹
